- System: Malme-3M
- assayProtocol: Growth inhibition of human MALME-3M cells incubated for 48 hrs by sulforhodamine B assay
- Type: functional
- conditionsUsed: read-out: pTGI (converted)

{"entrySmiles": "CC(C)[C@@]12C[C@@H](NC(=O)CO)[C@@](C)(O1)[C@@H]1CC[C@@H](C)[C@H]1[C@@H]2OC(=O)/C=C/C1CCCCC1", "TGI": "> 44.7 µM"}
{"entrySmiles": "CC(C)[C@@]12C[C@@H](NC(=O)CO)[C@@](C)(O1)[C@@H]1CC[C@@H](C)[C@H]1[C@@H]2OC(=O)/C=C/c1ccccc1", "TGI": "> 50.1 µM"}
{"entrySmiles": "CC(C)[C@@]12C[C@@H](NC(=O)CO)[C@@](C)(O1)[C@@H]1CC[C@@H](C)[C@H]1[C@@H]2OC(=O)c1ccc2ccccc2c1", "TGI": "33.1 µM"}
{"entrySmiles": "C/C(=C\\C(=O)O[C@H]1[C@@H]2[C@H](C)CC[C@H]2[C@]2(C)O[C@@]1(C(C)C)C[C@H]2NC(=O)CO)c1ccccc1", "TGI": "> 100 µM"}

---

- Tested on: SK-MEL-2
- assayProtocol: Growth inhibition of human SK-MEL-2 cells incubated for 48 hrs by sulforhodamine B assay
- Assay type: functional
- conditionsUsed: SK-MEL-2, 48 h

{"entrySmiles": "CC(C)[C@@]12C[C@@H](NC(=O)CO)[C@@](C)(O1)[C@@H]1CC[C@@H](C)[C@H]1[C@@H]2OC(=O)/C=C/C1CCCCC1", "LC50": "> 44.7 µM"}
{"entrySmiles": "CC(C)[C@@]12C[C@@H](NC(=O)CO)[C@@](C)(O1)[C@@H]1CC[C@@H](C)[C@H]1[C@@H]2OC(=O)c1ccc2ccccc2c1", "LC50": "60.3 µM"}
{"entrySmiles": "C/C(=C\\C(=O)O[C@H]1[C@@H]2[C@H](C)CC[C@H]2[C@]2(C)O[C@@]1(C(C)C)C[C@H]2NC(=O)CO)c1ccccc1", "LC50": "> 100 µM"}
{"entrySmiles": "CC(C)[C@@]12C[C@@H](NC(=O)CO)[C@@](C)(O1)[C@@H]1CC[C@@H](C)[C@H]1[C@@H]2OC(=O)/C=C/c1ccccc1", "LC50": "> 50.1 µM"}

---

Catalogue of LC50 readings, one per entry.
- assayProtocol: Growth inhibition of human MOLT4 cells incubated for 48 hrs by sulforhodamine B assay
- Assay type: functional
- conditionsUsed: MOLT-4, 48 h

{"entrySmiles": "CC(C)[C@@]12C[C@@H](NC(=O)CO)[C@@](C)(O1)[C@@H]1CC[C@@H](C)[C@H]1[C@@H]2OC(=O)c1ccc2ccccc2c1", "LC50": "89.1 µM"}
{"entrySmiles": "CC(C)[C@@]12C[C@@H](NC(=O)CO)[C@@](C)(O1)[C@@H]1CC[C@@H](C)[C@H]1[C@@H]2OC(=O)/C=C/c1ccccc1", "LC50": "> 50.1 µM"}
{"entrySmiles": "CC(C)[C@@]12C[C@@H](NC(=O)CO)[C@@](C)(O1)[C@@H]1CC[C@@H](C)[C@H]1[C@@H]2OC(=O)/C=C/C1CCCCC1", "LC50": "> 44.7 µM"}
{"entrySmiles": "C/C(=C\\C(=O)O[C@H]1[C@@H]2[C@H](C)CC[C@H]2[C@]2(C)O[C@@]1(C(C)C)C[C@H]2NC(=O)CO)c1ccccc1", "LC50": "> 100 µM"}

---

Entries and their LC50
- Test system: KM12
- assayProtocol: Growth inhibition of human KM12 cells incubated for 48 hrs by sulforhodamine B assay
- Format: functional
- conditionsUsed: KM12, 48 h

{"entrySmiles": "C/C(=C\\C(=O)O[C@H]1[C@@H]2[C@H](C)CC[C@H]2[C@]2(C)O[C@@]1(C(C)C)C[C@H]2NC(=O)CO)c1ccccc1", "LC50": "> 100 µM"}
{"entrySmiles": "CC(C)[C@@]12C[C@@H](NC(=O)CO)[C@@](C)(O1)[C@@H]1CC[C@@H](C)[C@H]1[C@@H]2OC(=O)/C=C/c1ccccc1", "LC50": "> 50.1 µM"}
{"entrySmiles": "CC(C)[C@@]12C[C@@H](NC(=O)CO)[C@@](C)(O1)[C@@H]1CC[C@@H](C)[C@H]1[C@@H]2OC(=O)c1ccc2ccccc2c1", "LC50": "61.7 µM"}
{"entrySmiles": "CC(C)[C@@]12C[C@@H](NC(=O)CO)[C@@](C)(O1)[C@@H]1CC[C@@H](C)[C@H]1[C@@H]2OC(=O)/C=C/C1CCCCC1", "LC50": "> 44.7 µM"}

---

- assayProtocol: Growth inhibition of human OVCAR8 cells incubated for 48 hrs by sulforhodamine B assay
- Type: functional
- conditionsUsed: OVCAR-8, 48 h, read-out: pTGI (converted)
# TGI annotations

{"entrySmiles": "CC(C)[C@@]12C[C@@H](NC(=O)CO)[C@@](C)(O1)[C@@H]1CC[C@@H](C)[C@H]1[C@@H]2OC(=O)c1ccc2ccccc2c1", "TGI": "22.4 µM"}
{"entrySmiles": "CC(C)[C@@]12C[C@@H](NC(=O)CO)[C@@](C)(O1)[C@@H]1CC[C@@H](C)[C@H]1[C@@H]2OC(=O)/C=C/C1CCCCC1", "TGI": "> 44.7 µM"}
{"entrySmiles": "C/C(=C\\C(=O)O[C@H]1[C@@H]2[C@H](C)CC[C@H]2[C@]2(C)O[C@@]1(C(C)C)C[C@H]2NC(=O)CO)c1ccccc1", "TGI": "> 100 µM"}
{"entrySmiles": "CC(C)[C@@]12C[C@@H](NC(=O)CO)[C@@](C)(O1)[C@@H]1CC[C@@H](C)[C@H]1[C@@H]2OC(=O)/C=C/c1ccccc1", "TGI": "> 50.1 µM"}

---

- System: MDA-MB-435
- assayProtocol: Growth inhibition of human MDA-MB-435 cells incubated for 48 hrs by sulforhodamine B assay
- Assay type: functional
- conditionsUsed: MDA-MB-435, 48 h
LC50 overview

{"entrySmiles": "C/C(=C\\C(=O)O[C@H]1[C@@H]2[C@H](C)CC[C@H]2[C@]2(C)O[C@@]1(C(C)C)C[C@H]2NC(=O)CO)c1ccccc1", "LC50": "> 100 µM"}
{"entrySmiles": "CC(C)[C@@]12C[C@@H](NC(=O)CO)[C@@](C)(O1)[C@@H]1CC[C@@H](C)[C@H]1[C@@H]2OC(=O)/C=C/C1CCCCC1", "LC50": "> 44.7 µM"}
{"entrySmiles": "CC(C)[C@@]12C[C@@H](NC(=O)CO)[C@@](C)(O1)[C@@H]1CC[C@@H](C)[C@H]1[C@@H]2OC(=O)/C=C/c1ccccc1", "LC50": "> 50.1 µM"}
{"entrySmiles": "CC(C)[C@@]12C[C@@H](NC(=O)CO)[C@@](C)(O1)[C@@H]1CC[C@@H](C)[C@H]1[C@@H]2OC(=O)c1ccc2ccccc2c1", "LC50": "63.1 µM"}

---

- assayProtocol: Growth inhibition of human Hs 578T cells assessed as cell growth at 10 uM incubated for 48 hrs by sulforhodamine B assay relative to control
- Format: functional
- conditionsUsed: read-out: Activity

{"entrySmiles": "CC(C)[C@@]12C[C@@H](NC(=O)CO)[C@@](C)(O1)[C@@H]1CC[C@@H](C)[C@H]1[C@@H]2OC(=O)/C=C/c1ccccc1", "growth at 10 µM": "9%"}
{"entrySmiles": "CC(C)[C@@]12C[C@@H](NC(=O)CO)[C@@](C)(O1)[C@@H]1CC[C@@H](C)[C@H]1[C@@H]2OC(=O)/C=C/C1CCCCC1", "growth at 10 µM": "73%"}
{"entrySmiles": "C/C(=C\\C(=O)O[C@H]1[C@@H]2[C@H](C)CC[C@H]2[C@]2(C)O[C@@]1(C(C)C)C[C@H]2NC(=O)CO)c1ccccc1", "growth at 10 µM": "-8.92%"}
{"entrySmiles": "CC(C)[C@@]12C[C@@H](NC(=O)CO)[C@@](C)(O1)[C@@H]1CC[C@@H](C)[C@H]1[C@@H]2OC(=O)c1ccc2ccccc2c1", "growth at 10 µM": "-18.3%"}
{"entrySmiles": "CC(C)[C@@]12C[C@@H](NC(=O)CF)[C@@](C)(O1)[C@@H]1CC[C@@H](C)[C@H]1[C@@H]2OC(=O)/C=C/c1ccccc1", "growth at 10 µM": "92.6%"}

---

- assayProtocol: Growth inhibition of human SNB75 cells incubated for 48 hrs by sulforhodamine B assay
- Type: functional
- conditionsUsed: SNB-75, 48 h
Listing: LC50 of selected compounds

{"entrySmiles": "CC(C)[C@@]12C[C@@H](NC(=O)CO)[C@@](C)(O1)[C@@H]1CC[C@@H](C)[C@H]1[C@@H]2OC(=O)/C=C/C1CCCCC1", "LC50": "> 44.7 µM"}
{"entrySmiles": "CC(C)[C@@]12C[C@@H](NC(=O)CO)[C@@](C)(O1)[C@@H]1CC[C@@H](C)[C@H]1[C@@H]2OC(=O)/C=C/c1ccccc1", "LC50": "> 50.1 µM"}
{"entrySmiles": "CC(C)[C@@]12C[C@@H](NC(=O)CO)[C@@](C)(O1)[C@@H]1CC[C@@H](C)[C@H]1[C@@H]2OC(=O)c1ccc2ccccc2c1", "LC50": "56.2 µM"}
{"entrySmiles": "C/C(=C\\C(=O)O[C@H]1[C@@H]2[C@H](C)CC[C@H]2[C@]2(C)O[C@@]1(C(C)C)C[C@H]2NC(=O)CO)c1ccccc1", "LC50": "> 100 µM"}
